Molecular target: DNA ligase A (Mycobacterium tuberculosis (strain ATCC 25618 / H37Rv), UniProt P9WNV1)
Test: Enzyme Assay
Excerpt: All assays have been carried out using procedures previously described by our group (Srivastava et al., 2005a; 2005b; 2007)
OBSERVATION_TYPE: IC50 (µM)
// return numeric value only (unit: µM, not printed)

DNA ligase A (Mycobacterium tuberculosis (strain ATCC 25618 / H37Rv), UniProt P9WNV1) IC50 of CC1(C)O[C@H]2OC(C(CCO)NCCCN[C@@H](CCO)C3O[C@@H]4OC(C)(C)O[C@@H]4[C@H]3OCc3ccccc3)[C@H](OCc3ccccc3)[C@H]2O1 (stereo partly specified) is 46.2
